The molecules listed here are annotated with their log10 IC50.
assayed.system: BACE1 (Homo sapiens (Human))
assay.notes: BACE1 Cell-Free Assay (fluorescence polarization)
Assay type: biochemical
condition.context: geometric mean of 2-4 determinations unless otherwise indicated (b: ≧5; c: single determination); read-out: BACE1 Cell-free Assay IC50
Where a name gives a salt, the structure may show the parent alone.
reported.metric: log10 IC50 (log10 of the value in nM)

> print(dat)
                                    molecule  reported.metric  reported
 1  CCc1nc(C(=O)Nc2csc([C@]34CO[C@@H](C)C[C@H]3CSC(N)=N4)n2)co1 [Example 42, trifluoroacetate salt]       log10 IC50      2.53
 2  Cc1nn(C)cc1C(=O)Nc1csc([C@]23CO[C@@H](C)C[C@H]2CSC(N)=N3)n1       log10 IC50      3.30
 3  CCC(F)(F)Oc1ccc(C(=O)Nc2csc([C@]34CO[C@@H](C)C[C@H]3CSC(N)=N4)n2)nc1       log10 IC50      2.49
 4  C[C@H]1C[C@H]2CSC(N)=N[C@@]2(c2nc(NC(=O)c3ccc(OC(F)(F)F)cn3)cs2)CO1       log10 IC50      2.03
 5  Cc1nc(C(=O)Nc2csc([C@]34CO[C@@H](C)C[C@H]3CSC(N)=N4)n2)c(C(F)(F)F)o1 [Example 38, trifluoroacetate salt]       log10 IC50      2.16
 6  C[C@H]1C[C@H]2CSC(N)=N[C@@]2(c2nc(NC(=O)c3ccnn3C3CC3)cs2)CO1 [Example 85, formate salt]       log10 IC50      3.63
 7  C[C@H]1C[C@H]2CSC(N)=N[C@@]2(c2nc(NC(=O)c3cc(Cl)n(C)n3)cs2)CO1       log10 IC50      3.53
 8  C[C@H]1C[C@H]2CSC(N)=N[C@@]2(c2nc(NC(=O)c3ccc(OC(F)F)nc3)cs2)CO1       log10 IC50      2.37
 9  Cc1cnc(C(=O)Nc2csc([C@]34CO[C@@H](C)C[C@H]3CSC(N)=N4)n2)cn1 [Example 68, trifluoroacetate salt]       log10 IC50      3.32
10  C[C@H]1C[C@H]2CSC(N)=N[C@@]2(c2nc(NC(=O)c3ncc(OC(F)F)cc3Cl)cs2)CO1       log10 IC50      1.40
11  C[C@H]1C[C@H]2CSC(N)=N[C@@]2(c2nc(NC(=O)c3cc(C4CCC4)nn3C)cs2)CO1       log10 IC50      3.17
12  C[C@H]1C[C@H]2CSC(N)=N[C@@]2(c2nc(NC(=O)c3ccc(OC(C)(F)F)cn3)cs2)CO1       log10 IC50      2.27
13  C[C@H]1C[C@H]2CSC(N)=N[C@@]2(c2nc(NC(=O)c3ccc(C(F)(F)F)cn3)cs2)CO1       log10 IC50      1.73
14  CC(C)c1cc(C(=O)Nc2csc([C@]34CO[C@@H](C)C[C@H]3CSC(N)=N4)n2)n(C)n1 [Example 70, trifluoroacetate salt]       log10 IC50      4.02
15  Cc1cc(OC(F)F)cnc1C(=O)Nc1csc([C@]23CO[C@@H](C)C[C@H]2CSC(N)=N3)n1       log10 IC50      1.36
16  CC(C)n1cnc(C(=O)Nc2csc([C@]34CO[C@@H](C)C[C@H]3CSC(N)=N4)n2)c1 [Example 61, trifluoroacetate salt]       log10 IC50      3.26
17  CC(C)Cc1cc(C(=O)Nc2csc([C@]34CO[C@@H](C)C[C@H]3CSC(N)=N4)n2)nn1C [Example 65, trifluoroacetate salt]       log10 IC50      4.71
18  C[C@H]1C[C@H]2CSC(N)=N[C@@]2(c2nc(NC(=O)c3ncc(OC(F)F)cn3)cs2)CO1       log10 IC50      2.25
19  C[C@H]1C[C@H]2CSC(N)=N[C@@]2(c2nc(NC(=O)c3cnc(CF)cn3)cs2)CO1       log10 IC50      2.50

* * *

assayed.system: CYP2D6 (Homo sapiens (Human), UniProt P10635)
Sequence (P10635 whole entry): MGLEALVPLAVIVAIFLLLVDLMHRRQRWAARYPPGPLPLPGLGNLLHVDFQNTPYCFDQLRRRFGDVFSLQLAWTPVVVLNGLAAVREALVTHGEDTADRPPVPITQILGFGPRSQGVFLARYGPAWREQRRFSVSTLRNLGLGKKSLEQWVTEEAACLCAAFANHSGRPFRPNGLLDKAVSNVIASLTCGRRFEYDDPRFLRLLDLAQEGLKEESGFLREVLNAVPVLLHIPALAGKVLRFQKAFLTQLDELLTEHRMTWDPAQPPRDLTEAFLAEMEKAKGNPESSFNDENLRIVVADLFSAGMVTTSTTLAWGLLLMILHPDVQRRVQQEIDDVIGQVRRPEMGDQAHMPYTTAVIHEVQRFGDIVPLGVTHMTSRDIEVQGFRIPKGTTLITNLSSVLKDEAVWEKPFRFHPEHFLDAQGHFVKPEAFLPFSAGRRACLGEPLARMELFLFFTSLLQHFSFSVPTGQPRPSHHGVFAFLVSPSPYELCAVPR
assay.notes: General Multi-Point Cocktail DDI IC50 Assay
condition.context: microsomes
pIC50: −log10 of the molar value.
reported.metric: pIC50

> print(dat)
                                   molecule  reported
1  NC1=N[C@@]2(c3cc(NC(=O)c4ccc(OC(F)F)cn4)ccc3F)COCC[C@H]2CS1 [Comparator 4, reference compound]    > 7.00

* * *

assayed.system: BACE1 (Homo sapiens (Human), UniProt P56817)
Sequence (P56817 46-457): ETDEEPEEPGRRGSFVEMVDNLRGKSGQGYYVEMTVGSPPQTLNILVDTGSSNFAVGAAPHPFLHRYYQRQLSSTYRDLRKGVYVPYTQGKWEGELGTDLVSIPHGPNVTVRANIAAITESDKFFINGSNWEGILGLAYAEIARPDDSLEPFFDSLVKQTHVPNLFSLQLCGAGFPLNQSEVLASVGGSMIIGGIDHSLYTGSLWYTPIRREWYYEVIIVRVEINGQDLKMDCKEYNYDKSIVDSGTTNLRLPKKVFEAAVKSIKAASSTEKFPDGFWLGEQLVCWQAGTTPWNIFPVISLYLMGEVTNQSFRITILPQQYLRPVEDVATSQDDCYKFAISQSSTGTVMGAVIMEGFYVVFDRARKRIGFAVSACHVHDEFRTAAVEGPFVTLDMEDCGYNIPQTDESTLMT
assay.notes: BACE1 Cell-Free Assay (fluorescence polarization)
Assay type: biochemical
condition.context: geometric mean of 2-4 determinations unless otherwise indicated (b: ≧5; c: single determination); read-out: BACE1 Cell-free Assay IC50
Structures can show the parent of a compound that is named as a salt.
reported.metric: IC50

> print(dat)
                                   molecule                            assayed.system  reported.metric  reported
1  COCC(F)(F)c1cnc(C(=O)Nc2csc([C@]34CO[C@@H](C)C[C@H]3CSC(N)=N4)n2)cn1 [Example 100]  BACE1 (Homo sapiens (Human), UniProt P56817)             IC50   0.22 µM
2  CC#CCOc1cnc(C(=O)Nc2csc([C@]34CO[C@@H](C)C[C@H]3CSC(N)=N4)n2)cn1 [Example 22]  BACE1 (Homo sapiens (Human), UniProt P56817)             IC50  0.013 µM
3  C[C@H]1C[C@H]2CSC(N)=N[C@@]2(c2nc(NC(=O)c3coc(C(F)(F)F)n3)cs2)CO1 [Example 50]  BACE1 (Homo sapiens (Human), UniProt P56817)             IC50  0.189 µM
4  C[C@H]1C[C@H]2CSC(N)=N[C@@]2(c2nc(NC(=O)c3ncn(C)n3)cs2)CO1 [Example 43, trifluoroacetate salt]  BACE1 (Homo sapiens (Human), UniProt P56817)             IC50  0.435 µM
5  COc1cnc(C(=O)Nc2csc([C@]34CO[C@@H](C)C[C@H]3CSC(N)=N4)n2)c(C)c1 [Example 47]  BACE1 (Homo sapiens (Human), UniProt P56817)             IC50  0.101 µM
6  Cc1nc(C(=O)Nc2csc([C@]34CO[C@@H](C)C[C@H]3CSC(N)=N4)n2)c(C)o1 [Example 53]  BACE1 (Homo sapiens (Human), UniProt P56817)             IC50  0.065 µM
7  C[C@H]1C[C@H]2CSC(N)=N[C@@]2(c2nc(NC(=O)c3cnc(C4CC4)cn3)cs2)CO1 [Example 82, hydrochloride salt]  BACE1 (Homo sapiens (Human), UniProt P56817)             IC50   1.08 µM

* * *

assayed.system: BACE1 (Homo sapiens (Human), UniProt P56817)
assay.notes: BACE1 Cell-Free Assay (fluorescence polarization)
Type: biochemical
condition.context: geometric mean of 2-4 determinations unless otherwise indicated (b: ≧5; c: single determination); read-out: BACE1 Cell-free Assay IC50
Counter-ions that a name gives are not always drawn.
Each entry falls into one class according to its IC50; the ranges are low bracket (below 300 nM), middle bracket (300 nM to below 700 nM), high bracket (700 nM or more)

> print(dat)
                                    compound        category
 1  C[C@H]1C[C@H]2CSC(N)=N[C@@]2(c2nc(NC(=O)c3cccnn3)cs2)CO1 [Example 30]    high bracket
 2  C[C@H]1C[C@H]2CSC(N)=N[C@@]2(c2nc(NC(=O)c3cnc(OCC(F)F)cn3)cs2)CO1 [Example 12]     low bracket
 3  COCCn1ccc(C(=O)Nc2csc([C@]34CO[C@@H](C)C[C@H]3CSC(N)=N4)n2)n1 [Example 88]  middle bracket
 4  C[C@H]1C[C@H]2CSC(N)=N[C@@]2(c2nc(NC(=O)C3(C#N)CC3)cs2)CO1 [Example 106]  middle bracket
 5  C[C@H]1C[C@H]2CSC(N)=N[C@@]2(c2nc(NC(=O)c3cnn(C(F)F)c3)cs2)CO1 [Example 83]  middle bracket
 6  C[C@H]1C[C@H]2CSC(N)=N[C@@]2(c2nc(NC(=O)c3cc(C4CC4)on3)cs2)CO1 [Example 31]    high bracket
 7  COCc1cc(C(=O)Nc2csc([C@]34CO[C@@H](C)C[C@H]3CSC(N)=N4)n2)no1 [Example 35]    high bracket
 8  C[C@H]1C[C@H]2CSC(N)=N[C@@]2(c2nc(NC(=O)C3CC3)cs2)CO1 [Example 107]  middle bracket
 9  C[C@H]1C[C@H]2CSC(N)=N[C@@]2(c2nc(NC(=O)c3cnc(OC4CC4)cn3)cs2)CO1 [Example 55]  middle bracket
10  C[C@H]1C[C@H]2CSC(N)=N[C@@]2(c2nc(NC(=O)c3coc(CC(F)(F)F)n3)cs2)CO1 [Example 91]     low bracket
11  C[C@H]1C[C@H]2CSC(N)=N[C@@]2(c2nc(NC(=O)c3ncccn3)cs2)CO1 [Example 79, trifluoroacetate salt]    high bracket
12  Cc1nc(C)c(C(=O)Nc2csc([C@]34CO[C@@H](C)C[C@H]3CSC(N)=N4)n2)o1 [Example 59, trifluoroacetate salt]    high bracket
13  COc1ccc(C(=O)Nc2csc([C@]34CO[C@@H](C)C[C@H]3CSC(N)=N4)n2)nc1 [Example 19]     low bracket
14  COCC(F)(F)c1ccc(C(=O)Nc2csc([C@]34CO[C@@H](C)C[C@H]3CSC(N)=N4)n2)nc1 [Example 103]     low bracket

The values you see were collected from patent US9315520B2.
